Tested on: human primary skin fibroblasts
Assay: SRB proliferation assay (48 h) on primary fibroblasts
Format: cell-based
Settings: SRB, nonlinear regression, N/A = could not be calculated/had no effect

- COMPOUND: "Cc1ccc(C(C)C)cc1.F[P-](F)(F)(F)(F)F.O=C(OCC1OC(n2cc(-c3ccccn3)nn2)C(OC(=O)c2ccccc2)C(OC(=O)c2ccccc2)C1OC(=O)c1ccccc1)c1ccccc1.[Cl][Ru+] (mixture of isomers)"
  Fibroblast Hill Slope: 0.78
- COMPOUND: "Cc1ccc(C(C)C)cc1.F[P-](F)(F)(F)(F)F.O=C(OC1COC(c2n[n+]3c(o2)-c2cccc[n+]2[Ru-]3[Cl])C(OC(=O)c2ccccc2)C1OC(=O)c1ccccc1)c1ccccc1 (mixture of isomers)"
  Fibroblast Hill Slope: 3.52
- COMPOUND: "O=C1[O][Pt]2([NH][C@@H]3CCCC[C@H]3[NH]2)[O]C1=O [Oxaliplatin, oxaliplatin, reference compound]"
  Fibroblast Hill Slope: 0.37
- COMPOUND: "N.N.[Cl][Pt][Cl] [Cisplatin, cisplatin, reference compound]"
  Fibroblast Hill Slope: 1.53
